# Experimental system: neuraminidase from A/PR/8/34 (H1N1) (Influenza A virus)
# Sequence (P03468 whole entry, looked up): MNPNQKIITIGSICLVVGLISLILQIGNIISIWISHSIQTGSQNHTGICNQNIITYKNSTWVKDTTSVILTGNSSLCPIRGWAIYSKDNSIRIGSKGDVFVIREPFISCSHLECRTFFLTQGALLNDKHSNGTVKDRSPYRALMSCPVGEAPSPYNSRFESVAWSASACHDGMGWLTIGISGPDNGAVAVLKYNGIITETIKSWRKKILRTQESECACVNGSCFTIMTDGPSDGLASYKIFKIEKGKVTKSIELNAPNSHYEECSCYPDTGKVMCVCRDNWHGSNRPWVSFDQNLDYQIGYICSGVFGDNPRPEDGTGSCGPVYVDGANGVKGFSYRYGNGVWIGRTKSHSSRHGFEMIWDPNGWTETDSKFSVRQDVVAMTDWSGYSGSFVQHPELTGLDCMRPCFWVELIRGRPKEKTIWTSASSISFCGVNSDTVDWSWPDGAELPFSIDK
# Assay overview: biochemical
pIC50: −log10 of the molar value.
Entries and their measured pIC50 follow.
Measured endpoint: pIC50

>>> observed_measurement("CC(C)c1cc2c(cc1O)[C@@]1(C)CCC[C@@](C)(CO)[C@@H]1CC2 [Compound 1, 18-hydroxyferruginol]")
"< 4.00"
>>> observed_measurement("CC(C)c1cc2c(cc1O)[C@@]1(C)CCC[C@@](C)(C=O)[C@@H]1CC2")
"< 4.00"

* * *

# Experimental system: neuraminidase from A/Chicken/Korea/MS96/96 (H9N2) (Influenza A virus (A/Chicken/Korea/MS96/96(H9N2)), UniProt Q9J458)
# Study conditions: read-out: Neuraminiase IC50
pIC50: −log10 of the molar value.
Measured endpoint: pIC50

>>> observed_measurement("CC(C)c1cc2c(cc1O)[C@@]1(C)CCC[C@@](C)(CO)[C@@H]1CC2 [Compound 1, 18-hydroxyferruginol]")
4.09
